System: Staphylococcus aureus
Assay: microbe, parasite or virus in culture
Assay type: functional
Settings: ATCC 25923, 5 h
Description: Inhibition of cell division in penicillin-susceptible Staphylococcus aureus ATCC 25923 assessed as ballooning after 5 hrs by phase contrast microscopy
endpoint_name: MIC (mg/L)

compound=COc1ccc(/C=C/C(=O)n2c(C)nc3ccccc32)cc1OC endpoint_name=MIC measure_unit=mg/L qualifying_sign== readout_number=64
compound=COc1ccc(/C=C/C(=O)Nc2cccnc2)cc1 endpoint_name=MIC measure_unit=mg/L qualifying_sign== readout_number=4
compound=COc1ccc(NC(=O)/C=C/c2ccc(Cl)cc2Cl)cc1 endpoint_name=MIC measure_unit=mg/L qualifying_sign=> readout_number=128
compound=CCCNC(=O)/C=C/c1ccc(Cl)cc1Cl endpoint_name=MIC measure_unit=mg/L qualifying_sign== readout_number=64
compound=Cc1nc2ccccc2n1C(=O)/C=C/c1ccc(F)cc1 endpoint_name=MIC measure_unit=mg/L qualifying_sign== readout_number=0.5
compound=COc1ccc(/C=C/C(=O)N2CCOCC2)cc1OC endpoint_name=MIC measure_unit=mg/L qualifying_sign=> readout_number=128
compound="O=C(O)/C=C/c1ccccc1 [CINNAMIC ACID]" endpoint_name=MIC measure_unit=mg/L qualifying_sign=> readout_number=128
compound=COc1cc(/C=C/C(=O)n2c(C)nc3ccccc32)cc(OC)c1OC endpoint_name=MIC measure_unit=mg/L qualifying_sign== readout_number=64
compound=O=C(/C=C/c1ccc(Cl)cc1Cl)N1CCOCC1 endpoint_name=MIC measure_unit=mg/L qualifying_sign=> readout_number=128
compound=CCN(CC)C(=O)/C=C/c1ccc(Cl)cc1Cl endpoint_name=MIC measure_unit=mg/L qualifying_sign== readout_number=128
compound="O=C(/C=C/c1ccc(Cl)cc1Cl)N1CCN(C(c2ccccc2)c2ccc(Cl)cc2)CC1 (stereo unspecified)" endpoint_name=MIC measure_unit=mg/L qualifying_sign== readout_number=64
